test system: DU145 cells; assay: Cell growth inhibition, DU145 prostate cells; type: cell-based; conditions: Homo sapiens, DU-145
reported-property: pIC50
Give bare numbers, as −log10 of the molar value.

Input line: Return reported pIC50. Input compound: C/C(=C\c1ccc(C)cn1)[C@@H]1C[C@@H]2O[C@]2(C)CCCC(C)[C@H](O)C(C)C(=O)C(C)(C)C(O)CC(=O)O1 (stereo partly shown) [D (Example 1)]
Output line: 9.60

====

tested on: PC-3M cells; experiment: Cell growth inhibition, PC-3M prostate cells; type: cell-based; settings: Homo sapiens
reported-property: pIC50
One number for each entry, as −log10 of the molar value.

Input line: Return reported pIC50. Input molecule: C/C(=C\c1ccc(C)cn1)[C@@H]1C[C@@H]2O[C@]2(C)CCCC(C)[C@H](O)C(C)C(=O)C(C)(C)C(O)CC(=O)O1 (stereo partly shown) [D (Example 1)]
Output line: 9.44

====

test system: HCT-15 cells; test: Cell growth inhibition, HCT-15 colon cells; assay type: cell-based; conditions: Homo sapiens
reported-property: pIC50
Answers are plain numbers, as −log10 of the molar value.

Input line: Return reported pIC50. Input compound: C/C(=C\c1ccc(C)cn1)[C@@H]1C[C@@H]2O[C@]2(C)CCCC(C)[C@H](O)C(C)C(=O)C(C)(C)C(O)CC(=O)O1 (stereo partly shown) [D (Example 1)]
Output line: 9.61
